- system.name: K-Ras G12C (Homo sapiens (Human), UniProt P01116+P62937, G12C)
- Sequence (P01116-2 other isoform, or with tags, fused parts or gaps G12C): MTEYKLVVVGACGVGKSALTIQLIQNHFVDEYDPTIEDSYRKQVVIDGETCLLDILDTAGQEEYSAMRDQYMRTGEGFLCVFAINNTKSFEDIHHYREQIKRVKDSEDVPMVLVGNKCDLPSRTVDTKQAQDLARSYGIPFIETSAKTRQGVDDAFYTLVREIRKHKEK
- Sequence (P62937 whole entry): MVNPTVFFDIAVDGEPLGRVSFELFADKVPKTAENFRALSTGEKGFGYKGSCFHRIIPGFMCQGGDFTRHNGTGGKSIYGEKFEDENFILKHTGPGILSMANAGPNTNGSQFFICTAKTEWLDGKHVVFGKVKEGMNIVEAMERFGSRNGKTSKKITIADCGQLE
- experiment.description: Ras-Raf (BRAF RBD) disruption / FRET / MOA assay, KRAS G12C
- Format: biochemical
- experimental.context: KRAS G12C; Ras-Raf disruption/FRET/MOA assay; read-out: IC50* KRAS G12C FRET data
pIC50: −log10 of the molar value.
readout.name: pIC50

# annotated cases, reported pIC50 shown
C=CC(=O)N1CC(OC[C@H](C(=O)N[C@H]2Cc3cc(O)cc(c3)-c3ccc4c(c3)c(c(-c3cccnc3COC)n4CC)CC(C)(C)COC(=O)[C@@H]3CCCN(N3)C2=O)C(C)C)C1 [Example A232] = 6.00 to 7.00
CCn1c(-c2cccnc2[C@H](C)OC)c2c3cc(ccc31)-c1cccc(c1)C[C@H](NC(=O)[C@@H](COC1CN(C(=O)C#CC(C)(C)N(C)C(C)C)C1)C(C)C)C(=O)N1CCC[C@H](N1)C(=O)OCC(C)(C)C2 (atropisomer, axis not shown) [Example A599] = > 8.00
C=CC(=O)N1CC[C@@]2(COCCN2C(=O)N(C)[C@H](C(=O)N[C@H]2Cc3nc(cs3)-c3ccc4c(c3)c(c(-c3cccnc3[C@H](C)OC)n4CC)CC(C)(C)COC(=O)[C@@H]3CCCN(N3)C2=O)C(C)C)C1 (atropisomer, axis not shown) [Example A677] = 6.00 to 7.00

Shifting focus to the molecule that follows.
I am curious: what pIC50 value has been reported for C=CC(=O)N1CC[C@H](C(=O)N(C)[C@H](C(=O)N[C@H]2Cc3cc(F)cc(c3)-c3ccc4c(c3)c(c(-c3cccnc3[C@H](C)OC)n4CC)CC(C)(C)COC(=O)[C@@H]3CCCN(N3)C2=O)C(C)C)C1 (atropisomer, axis not shown) [Example A342] ?
7.00 to 8.00
